System: NCI-H1417 complex spheroids, growth % test/control
Test: Anticancer human tumor NCI-H1417 cell line growth inhibition [Asc];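 further: spheroids exposed to compounds for 7 days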
Settings: compound alone; run of 11/15/2022
pIC50: −log10 of the molar value.
quantityKind: pIC50

Briefly, pIC50 measured for CNC(C)C(=O)NC1CN(S(=O)(=O)c2cccc(S(=O)(=O)N3CCC4CCC(C(=O)NC(c5ccccc5)c5ccccc5)N4C(=O)C(NC(=O)C(C)NC)C3)c2)CCC2CCC(C(=O)NC(c3ccccc3)c3ccccc3)N2C1=O (stereo unspecified) : < 6.00

###

The entries below come with measured viability, T/C values attached.
System: NCI-H1417 complex spheroids, growth % test/control
Assay: Anticancer human tumor NCI-H1417 cell line growth inhibition [Asc];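 further: spheroids exposed to compounds for 7 days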;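 on viability, T/C: 100% = DMSO vehicle control wells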
Conditions: second compound 0.316 µM; first compound 0.00316 µM; stronger effect = lower value
State just the number; it will be interpreted in %.

O=C(c1ccc(F)c(F)c1Nc1ccc(I)cc1F)N1CC(O)([C@@H]2CCCCN2)C1 + CNC(C)C(=O)NC1CN(S(=O)(=O)c2cccc(S(=O)(=O)N3CCC4CCC(C(=O)NC(c5ccccc5)c5ccccc5)N4C(=O)C(NC(=O)C(C)NC)C3)c2)CCC2CCC(C(=O)NC(c3ccccc3)c3ccccc3)N2C1=O	88.6
COc1c(OCCCN2CCOCC2)ccc2c3n(c(=NC(=O)c4cnc(N)nc4)nc12)CCN3 + CNC(C)C(=O)NC1CN(S(=O)(=O)c2cccc(S(=O)(=O)N3CCC4CCC(C(=O)NC(c5ccccc5)c5ccccc5)N4C(=O)C(NC(=O)C(C)NC)C3)c2)CCC2CCC(C(=O)NC(c3ccccc3)c3ccccc3)N2C1=O	99.4
NC1CCC(NC2CC2c2ccccc2)CC1 (centres undefined) + CNC(C)C(=O)NC1CN(S(=O)(=O)c2cccc(S(=O)(=O)N3CCC4CCC(C(=O)NC(c5ccccc5)c5ccccc5)N4C(=O)C(NC(=O)C(C)NC)C3)c2)CCC2CCC(C(=O)NC(c3ccccc3)c3ccccc3)N2C1=O	82

Now take the following compound into account.
Form field, viability, T/C with NCI-H1417 complex spheroids, growth % test/control, item Cn1ncnc1[C@H]1c2n[nH]c(=O)c3cc(F)cc(c23)N[C@@H]1c1ccc(F)cc1 + Cc1c(S(C)(=O)=O)c(-c2cc(F)cc(N3CCN(c4ccc(NS(=O)(=O)c5ccc(NC(CCN6CCC(C(=O)OCCCP(=O)(O)O)CC6)CSc6ccccc6)c(S(=O)(=O)C(F)(F)F)c5)cc4)CC3)c2)c(-c2ccc(Cl)cc2)n1C(C)C : 31.7

###

System: NCI-H1417 complex spheroids, growth % test/control
Test: Anticancer human tumor NCI-H1417 cell line growth inhibition [Asc];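 further: spheroids exposed to compounds for 7 days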;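 on viability, T/C: 100% = DMSO vehicle control wells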
Conditions: second compound 0.01 µM; first compound 0.1 µM; stronger effect = lower value
quantityKind: viability, T/C (%)
Kindly answer with a numeric value in %, unit omitted.

Example compounds with recorded viability, T/C:
C=CC(=O)N1CCN(c2nc(=O)n(-c3c(C)ccnc3C(C)C)c3nc(-c4c(O)cccc4F)c(F)cc23)C(C)C1 (centres undefined) + CNC(C)C(=O)NC1CN(S(=O)(=O)c2cccc(S(=O)(=O)N3CCC4CCC(C(=O)NC(c5ccccc5)c5ccccc5)N4C(=O)C(NC(=O)C(C)NC)C3)c2)CCC2CCC(C(=O)NC(c3ccccc3)c3ccccc3)N2C1=O	90
C#Cc1c(F)ccc2cc(O)cc(-c3ncc4c(N5CC6CCC(C5)N6)nc(OCC56CCCN5CC(F)C6)nc4c3F)c12 (centres undefined) + CNC(C)C(=O)NC1CN(S(=O)(=O)c2cccc(S(=O)(=O)N3CCC4CCC(C(=O)NC(c5ccccc5)c5ccccc5)N4C(=O)C(NC(=O)C(C)NC)C3)c2)CCC2CCC(C(=O)NC(c3ccccc3)c3ccccc3)N2C1=O	90
COc1c(OCCCN2CCOCC2)ccc2c3n(c(=NC(=O)c4cnc(N)nc4)nc12)CCN3 + CNC(C)C(=O)NC1CN(S(=O)(=O)c2cccc(S(=O)(=O)N3CCC4CCC(C(=O)NC(c5ccccc5)c5ccccc5)N4C(=O)C(NC(=O)C(C)NC)C3)c2)CCC2CCC(C(=O)NC(c3ccccc3)c3ccccc3)N2C1=O	82.3
NC1CCC(NC2CC2c2ccccc2)CC1 (centres undefined) + CNC(C)C(=O)NC1CN(S(=O)(=O)c2cccc(S(=O)(=O)N3CCC4CCC(C(=O)NC(c5ccccc5)c5ccccc5)N4C(=O)C(NC(=O)C(C)NC)C3)c2)CCC2CCC(C(=O)NC(c3ccccc3)c3ccccc3)N2C1=O	91
CCN1CCN(Cc2ccc(Nc3ncc(F)c(-c4cc(F)c5nc(C)n(C(C)C)c5c4)n3)nc2)CC1 + CNC(C)C(=O)NC1CN(S(=O)(=O)c2cccc(S(=O)(=O)N3CCC4CCC(C(=O)NC(c5ccccc5)c5ccccc5)N4C(=O)C(NC(=O)C(C)NC)C3)c2)CCC2CCC(C(=O)NC(c3ccccc3)c3ccccc3)N2C1=O	99.7

Recorded viability, T/C (compound O=C(c1cc(Cc2n[nH]c(=O)c3ccccc23)ccc1F)N1CCN(C(=O)C2CC2)CC1 + CNC(C)C(=O)NC1CN(S(=O)(=O)c2cccc(S(=O)(=O)N3CCC4CCC(C(=O)NC(c5ccccc5)c5ccccc5)N4C(=O)C(NC(=O)C(C)NC)C3)c2)CCC2CCC(C(=O)NC(c3ccccc3)c3ccccc3)N2C1=O ): 101

// sample C=C(F)C(=O)N1CCN(c2nc(OCC3CCCN3C)nc3c2CCN(c2cccc4cccc(Cl)c24)C3)CC1CC#N (centres undefined) + CNC(C)C(=O)NC1CN(S(=O)(=O)c2cccc(S(=O)(=O)N3CCC4CCC(C(=O)NC(c5ccccc5)c5ccccc5)N4C(=O)C(NC(=O)C(C)NC)C3)c2)CCC2CCC(C(=O)NC(c3ccccc3)c3ccccc3)N2C1=O , its viability, T/C was 101

Given item Cn1ncnc1[C@H]1c2n[nH]c(=O)c3cc(F)cc(c23)N[C@@H]1c1ccc(F)cc1 + CNC(C)C(=O)NC1CN(S(=O)(=O)c2cccc(S(=O)(=O)N3CCC4CCC(C(=O)NC(c5ccccc5)c5ccccc5)N4C(=O)C(NC(=O)C(C)NC)C3)c2)CCC2CCC(C(=O)NC(c3ccccc3)c3ccccc3)N2C1=O , the value recorded as its viability, T/C is 85.3

The compound O=C(c1ccc(F)c(F)c1Nc1ccc(I)cc1F)N1CC(O)([C@@H]2CCCCN2)C1 + CNC(C)C(=O)NC1CN(S(=O)(=O)c2cccc(S(=O)(=O)N3CCC4CCC(C(=O)NC(c5ccccc5)c5ccccc5)N4C(=O)C(NC(=O)C(C)NC)C3)c2)CCC2CCC(C(=O)NC(c3ccccc3)c3ccccc3)N2C1=O showed viability, T/C equal to 103
